biological target: UniProt:P14416; assay: biochemical
pKi: −log10 of the molar value.
recorded endpoint: pKi

Use the examples below as a reference point.
COc1c(C(=O)N[C@@H]2CCN(Cc3ccccc3)C2)cc(Br)c2ccccc12 (stereo in doubt; 3g): 6.74
COc1c(C(=O)N[C@@H]2CCN(Cc3ccccc3)C2)cc(Br)c2ccccc12 (stereo in doubt): 6.82
CNc1cc(OC)c(C(=O)N[C@H]2CCCN(Cc3ccccc3)C2)cc1Cl (stereo in doubt): 6.60

A. CNc1cc(OC)c(C(=O)N[C@H]2CCCN(Cc3ccccc3)C2)cc1Cl (stereo in doubt; 5b)
B. C#Cc1cc(C(=O)N[C@@H]2CCN(Cc3ccccc3)C2)c(OC)c2ccccc12 (stereo in doubt)
IN: Response body: label of entry with the larger pKi; valid values A , B . Answer by stating the label of the chosen item.
OUT: A

====

biological target: D(2) dopamine receptor (Homo sapiens); assay: biochemical
recorded endpoint: Ki (nM)

a. CNc1cc(OC)c(C(=O)N[C@H]2CCN(Cc3ccccc3)C[C@@H]2C)cc1Cl (stereo in doubt; 3b)
b. COc1c(C(=O)N[C@@H]2CCN(Cc3ccccc3)C2)cc(C#Cc2ccccc2)c2ccccc12 (stereo in doubt)
IN: When the recorded Ki values are compared, which is smaller: that of a or that of b ? Respond with the label that goes with your answer.
OUT: a

====

molecular target: D(3) dopamine receptor (Homo sapiens); assay: biochemical
Sequence (P35462 whole entry): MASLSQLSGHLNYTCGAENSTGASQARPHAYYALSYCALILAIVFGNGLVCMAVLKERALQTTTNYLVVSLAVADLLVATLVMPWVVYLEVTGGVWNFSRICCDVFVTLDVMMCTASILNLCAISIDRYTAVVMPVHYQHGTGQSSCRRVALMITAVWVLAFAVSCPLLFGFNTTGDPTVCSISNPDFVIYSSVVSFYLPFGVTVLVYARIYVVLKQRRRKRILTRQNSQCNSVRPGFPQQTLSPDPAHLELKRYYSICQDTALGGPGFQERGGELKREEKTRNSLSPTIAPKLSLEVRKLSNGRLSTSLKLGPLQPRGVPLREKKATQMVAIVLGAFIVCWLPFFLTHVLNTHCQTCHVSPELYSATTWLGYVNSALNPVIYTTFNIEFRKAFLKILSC
recorded endpoint: Ki (µM)

// worked examples, Ki included
CNc1cc(OC)c(C(=O)N[C@H]2CN(Cc3ccccc3)C[C@H]2C)cc1Cl (stereo in doubt): 0.0018
COc1c(C(=O)N[C@H]2CN(Cc3ccccc3)C[C@@H]2C)cc(Br)c2ccccc12 (stereo in doubt): 0.14
COc1c(C(=O)NC[C@@H]2CCN(Cc3ccccc3)C2)cc(Br)c2ccccc12 (stereo in doubt): 1
COc1cc(N)c(Cl)cc1C(=O)N[C@H]1CCN(Cc2ccccc2)C[C@@H]1C (stereo in doubt; 3a): 2.2
COc1c(C(=O)N[C@@H]2CCN(Cc3ccccc3)C2)cc(C#Cc2ccccc2)c2ccccc12 (stereo in doubt; 3j): 1

P. CNc1cc(OC)c(C(=O)NC2CCN(Cc3ccccc3)CC2)cc1Cl
Q. COc1c(C(=O)NCC[C@@H]2CCN(Cc3ccccc3)C2)cc(Br)c2ccccc12 (stereo in doubt; 3l)
IN: Which value of Ki is smaller, the one for P or the one for Q ? Give the chosen item's label as your response.
OUT: P
(P: 0.16 µM, Q: 0.58 µM)

P. COc1c(C(=O)N[C@H]2CN(Cc3ccccc3)C[C@@H]2C)cc(Br)c2ccccc12 (stereo in doubt; 3d)
Q. COc1c(C(=O)N[C@@H]2CCN(Cc3ccccc3)C2)cc(Br)c2ccccc12 (stereo in doubt; 3g)
IN: Compare P and Q by numeric Ki and name the larger one. Answer by quoting the chosen item's label.
OUT: P
(P: 0.74 µM, Q: 0.25 µM)

1. COc1c(C(=O)NCC[C@@H]2CCN(Cc3ccccc3)C2)cc(Br)c2ccccc12 (stereo in doubt)
2. CNc1cc(OC)c(C(=O)N[C@H]2CN(Cc3ccccc3)C[C@@H]2C)cc1Cl (stereo in doubt)
3. COc1c(C(=O)N[C@@H]2CCN(Cc3ccccc3)C2)cc(Br)c2ccccc12 (stereo in doubt)
4. COc1cc(N)c(Cl)cc1C(=O)N[C@H]1CCCN(Cc2ccccc2)C1 (stereo in doubt; 5a)
IN: Highest Ki first, then in falling order down to the smallest. Your task in answering is to list the labels in the requested order.
OUT: 4, 1, 3, 2

====

biological target: D(1A) dopamine receptor (Bos taurus, UniProt Q95136)
Sequence (Q95136 whole entry): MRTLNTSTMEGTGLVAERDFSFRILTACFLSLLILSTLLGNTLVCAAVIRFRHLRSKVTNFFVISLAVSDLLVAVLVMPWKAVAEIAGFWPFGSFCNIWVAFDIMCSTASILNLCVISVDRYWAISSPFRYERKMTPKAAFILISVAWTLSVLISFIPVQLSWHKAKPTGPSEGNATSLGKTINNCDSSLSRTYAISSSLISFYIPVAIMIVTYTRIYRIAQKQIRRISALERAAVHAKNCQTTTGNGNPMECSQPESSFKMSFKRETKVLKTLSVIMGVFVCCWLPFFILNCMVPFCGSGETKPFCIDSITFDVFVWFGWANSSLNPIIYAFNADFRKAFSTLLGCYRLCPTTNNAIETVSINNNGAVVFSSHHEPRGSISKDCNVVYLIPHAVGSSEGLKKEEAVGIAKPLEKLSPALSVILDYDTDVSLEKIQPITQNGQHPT
pKi: −log10 of the molar value.
recorded endpoint: pKi

In the examples that follow, each entry is paired with its recorded pKi.
COc1c(C(=O)N[C@@H]2CCN(Cc3ccccc3)C2)cc(Br)c2ccccc12 (stereo in doubt): 5.13
CNc1cc(OC)c(C(=O)N[C@H]2CN(Cc3ccccc3)C[C@H]2C)cc1Cl (stereo in doubt): 5.33

A. C#Cc1cc(C(=O)N[C@@H]2CCN(Cc3ccccc3)C2)c(OC)c2ccccc12 (stereo in doubt; 3i)
B. C#Cc1cc(C(=O)N[C@@H]2CCN(Cc3ccccc3)C2)c(OC)c2ccccc12 (stereo in doubt)
IN: Given A and B , report the one with the higher recorded pKi. Your answer should be the label attached to the chosen record.
OUT: A
(A: 5.48, B: 5.21)

====

The compounds below have reported Ki for D(1A) dopamine receptor (Bos taurus, UniProt Q95136).
recorded endpoint: Ki (µM)

Recorded Ki, per entry:
COc1c(C(=O)N[C@H]2CN(Cc3ccccc3)C[C@H]2C)cc(Br)c2ccccc12 (stereo in doubt; 3f): 4.7
CNc1cc(OC)c(C(=O)N[C@H]2CN(Cc3ccccc3)C[C@@H]2C)cc1Cl (stereo in doubt): 5.3

a. CNc1cc(OC)c(C(=O)NC2CCN(Cc3ccccc3)CC2)cc1Cl
b. COc1cc(N)c(Cl)cc1C(=O)N[C@H]1CCN(Cc2ccccc2)C[C@@H]1C (stereo in doubt; 3a)
IN: Could you tell me which of a and b has the lower Ki reading? To answer, give the label that identifies your chosen option.
OUT: a

====

// endpoint Ki / system D(1A) dopamine receptor (Bos taurus, UniProt Q95136)
recorded endpoint: Ki (µM)

CNc1cc(OC)c(C(=O)N[C@H]2CCCN(Cc3ccccc3)C2)cc1Cl (stereo in doubt): 5.6

P. COc1c(C(=O)NCC[C@@H]2CCN(Cc3ccccc3)C2)cc(Br)c2ccccc12 (stereo in doubt)
Q. COc1cc(N)c(Cl)cc1C(=O)N[C@H]1CCCN(Cc2ccccc2)C1 (stereo in doubt; 5a)
IN: Consider P and Q . Which of these has its Ki at a higher number? Give the chosen item's label as your response.
OUT: Q
(Q: 17 µM, P: 2.1 µM)

====

target: D(2) dopamine receptor (Homo sapiens, UniProt P14416); assay: Ability to displace [3H]spiperone [0.5 nM (Kd=0.2-0.45 nM)] from human cloned dopamine receptor D2S expressed in CHO cells at 0.5 nM concentration; format: cell-based
Sequence (P14416 whole entry): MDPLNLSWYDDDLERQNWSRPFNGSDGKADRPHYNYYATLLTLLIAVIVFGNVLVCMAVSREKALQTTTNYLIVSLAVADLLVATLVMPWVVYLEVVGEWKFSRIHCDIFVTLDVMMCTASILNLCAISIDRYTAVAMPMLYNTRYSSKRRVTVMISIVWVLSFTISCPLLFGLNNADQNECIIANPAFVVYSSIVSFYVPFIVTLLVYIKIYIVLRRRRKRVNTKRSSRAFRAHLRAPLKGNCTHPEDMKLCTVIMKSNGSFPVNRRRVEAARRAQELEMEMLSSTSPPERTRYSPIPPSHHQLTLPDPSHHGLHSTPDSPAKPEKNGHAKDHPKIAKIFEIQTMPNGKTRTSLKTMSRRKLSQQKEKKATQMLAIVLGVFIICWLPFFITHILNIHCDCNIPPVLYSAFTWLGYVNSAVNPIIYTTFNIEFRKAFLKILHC
recorded endpoint: Ki (nM)

COc1c(C(=O)N[C@@H]2CCN(Cc3ccccc3)C2)cc(Br)c2ccccc12 (stereo in doubt; 3g): 130
COc1c(C(=O)N[C@H]2CN(Cc3ccccc3)C[C@H]2C)cc(Br)c2ccccc12 (stereo in doubt): 170

====

molecular target: D(2) dopamine receptor (Homo sapiens); assay: biochemical
recorded endpoint: Ki (nM)

COc1c(C(=O)N[C@@H]2CCN(Cc3ccccc3)C2)cc(C#Cc2ccccc2)c2ccccc12 (stereo in doubt; 3j): 6400

a. CNc1cc(OC)c(C(=O)N[C@H]2CCN(Cc3ccccc3)C[C@@H]2C)cc1Cl (stereo in doubt)
b. COc1cc(N)c(Cl)cc1C(=O)N[C@H]1CCCN(Cc2ccccc2)C1 (stereo in doubt)
c. COc1c(C(=O)N[C@H]2CN(Cc3ccccc3)C[C@@H]2C)cc(Br)c2ccccc12 (stereo in doubt)
d. COc1c(C(=O)NCC[C@@H]2CCN(Cc3ccccc3)C2)cc(Br)c2ccccc12 (stereo in doubt)
IN: // ranking: key=Ki, reverse=True Ranked list of labels, please, in the requested order.
OUT: b, d, c, a
(b: 7900 nM, d: 2500 nM, c: 490 nM, a: 8 nM)

====

target: D(3) dopamine receptor (Homo sapiens); experiment: biochemical
pKi: −log10 of the molar value.
recorded endpoint: pKi

Example cases with answers are listed next.
COc1c(C(=O)NC[C@@H]2CCN(Cc3ccccc3)C2)cc(Br)c2ccccc12 (stereo in doubt; 3k): 6.39
CNc1cc(OC)c(C(=O)N[C@H]2CCCN(Cc3ccccc3)C2)cc1Cl (stereo in doubt): 5.82
CNc1cc(OC)c(C(=O)N[C@H]2CCN(Cc3ccccc3)C[C@@H]2C)cc1Cl (stereo in doubt; 3b): 6.29
COc1cc(N)c(Cl)cc1C(=O)N[C@H]1CCN(Cc2ccccc2)C[C@@H]1C (stereo in doubt): 7.70
COc1c(C(=O)N[C@H]2CN(Cc3ccccc3)C[C@H]2C)cc(Br)c2ccccc12 (stereo in doubt; 3f): 6.41

1. C#Cc1cc(C(=O)N[C@@H]2CCN(Cc3ccccc3)C2)c(OC)c2ccccc12 (stereo in doubt)
2. CNc1cc(OC)c(C(=O)N[C@H]2CCCN(Cc3ccccc3)C2)cc1Cl (stereo in doubt; 5b)
3. COc1c(C(=O)N[C@@H]2CCN(Cc3ccccc3)C2)cc(I)c2ccccc12 (stereo in doubt; 3h)
IN: Form: Sort by [pKi] Order [ ascending ] Hello, could you send the labels back in the order asked? Thank you.
OUT: 2, 1, 3
(2: 6.25, 1: 7.10, 3: 7.47)

A. CNc1cc(OC)c(C(=O)N[C@H]2CCN(Cc3ccccc3)C[C@@H]2C)cc1Cl (stereo in doubt)
B. COc1c(C(=O)N[C@@H]2CCN(Cc3ccccc3)C2)cc(I)c2ccccc12 (stereo in doubt)
IN: # min-compare on pKi between A and B Response format: the label of the selected entry.
OUT: B
(B: 7.48, A: 7.89)

1. COc1c(C(=O)N[C@H]2CN(Cc3ccccc3)C[C@H]2C)cc(Br)c2ccccc12 (stereo in doubt)
2. CNc1cc(OC)c(C(=O)N[C@H]2CN(Cc3ccccc3)C[C@@H]2C)cc1Cl (stereo in doubt; 3c)
3. COc1cc(N)c(Cl)cc1C(=O)N[C@H]1CCCN(Cc2ccccc2)C1 (stereo in doubt)
IN: Order by pKi, ascending. Lab note: record answer as labels in requested order.
OUT: 3, 2, 1
